experiment: Cytotoxicity against human NHFB cells assessed as cell viability at 10 uM after 48 hrs by SRB assay; assay type: cell-based; conditions: read-out: Activity
assay.metric: viability at 48 h, 10 µM (%)
Number only, in %; omit the unit.

Entry under review: `O=C1N=C(Nc2ccc(O)cc2)S/C1=C/c1ccc(N2CCNCC2)cc1` . Reported viability at 48 h, 10 µM?
98.9

Entry under review: `CCN(CC)c1ccc(/C=C2/SC(Nc3ccccc3C)=NC2=O)cc1` . Reported viability at 48 h, 10 µM?
80.6

Entry under review: `Cc1ccccc1NC1=NC(=O)/C(=C\c2ccc(N3CCN(C)CC3)cc2)S1` . Reported viability at 48 h, 10 µM?
80.2

Values from ChEMBL document CHEMBL3399994
